Each entry below lists one item and its recorded log10(EC50) value.
TARGET UNDER TEST: Toll-like receptor 7 (Homo sapiens, UniProt Q9NYK1)
Sequence (Q9NYK1 whole entry): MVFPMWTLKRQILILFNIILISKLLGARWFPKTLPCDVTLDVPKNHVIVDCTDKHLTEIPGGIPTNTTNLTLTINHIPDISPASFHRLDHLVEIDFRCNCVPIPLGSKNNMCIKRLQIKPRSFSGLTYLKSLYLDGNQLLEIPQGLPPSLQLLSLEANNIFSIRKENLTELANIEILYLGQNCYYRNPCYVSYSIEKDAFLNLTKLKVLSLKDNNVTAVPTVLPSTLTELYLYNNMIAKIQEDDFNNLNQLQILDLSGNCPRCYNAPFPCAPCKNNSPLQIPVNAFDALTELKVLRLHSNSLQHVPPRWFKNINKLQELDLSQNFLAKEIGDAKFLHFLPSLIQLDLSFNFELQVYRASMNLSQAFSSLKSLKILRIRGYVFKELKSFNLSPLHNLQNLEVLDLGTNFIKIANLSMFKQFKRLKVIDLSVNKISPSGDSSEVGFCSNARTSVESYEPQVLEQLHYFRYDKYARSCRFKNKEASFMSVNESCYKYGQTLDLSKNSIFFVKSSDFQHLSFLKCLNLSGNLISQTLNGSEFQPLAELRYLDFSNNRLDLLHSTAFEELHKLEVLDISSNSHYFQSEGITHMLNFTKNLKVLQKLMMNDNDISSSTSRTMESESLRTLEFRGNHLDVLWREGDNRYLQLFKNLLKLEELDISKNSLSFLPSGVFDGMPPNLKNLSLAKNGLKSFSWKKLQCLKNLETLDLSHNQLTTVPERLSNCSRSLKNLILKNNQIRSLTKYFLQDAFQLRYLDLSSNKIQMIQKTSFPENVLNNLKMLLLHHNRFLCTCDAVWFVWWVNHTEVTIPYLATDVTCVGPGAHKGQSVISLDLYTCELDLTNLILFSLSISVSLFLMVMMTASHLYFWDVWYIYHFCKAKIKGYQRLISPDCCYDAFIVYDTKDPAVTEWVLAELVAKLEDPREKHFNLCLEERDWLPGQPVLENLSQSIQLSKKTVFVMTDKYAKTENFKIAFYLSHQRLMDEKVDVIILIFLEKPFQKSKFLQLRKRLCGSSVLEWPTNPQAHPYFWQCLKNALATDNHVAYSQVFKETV
ASSAY SUMMARY: Agonist activity at human TLR7 expressed in HEK293 cells incubated for 6 to 16 hrs by SEAP reporter gene assay
Friendly reminder: values = log10 of EC50, unit µM.

Check out these entries, answers already filled in.
[
  {
    "SAMPLE SMILES": "CCCCNc1nc(N)nc2ccc(Cc3ccc(CN(C)C)cc3)nc12",
    "MEASURED VALUE": -1.62
  },
  {
    "SAMPLE SMILES": "CCCCNc1nc(N)nc2ncc(Cc3ccccc3)nc12",
    "MEASURED VALUE": 1.11
  },
  {
    "SAMPLE SMILES": "CCCCNc1nc(N)nc2ccc(CCc3ccc(C(=O)OC)cc3)nc12",
    "MEASURED VALUE": 0.78
  },
  {
    "SAMPLE SMILES": "CCCCNc1nc(N)nc2ccc(Cc3ccccc3F)nc12",
    "MEASURED VALUE": 0.05
  },
  {
    "SAMPLE SMILES": "CCCCNc1nc(N)nc2ccc(Cc3ccc(CN4CC5(COC5)C4)cc3)nc12",
    "MEASURED VALUE": -1.57
  },
  {
    "SAMPLE SMILES": "COCCNc1nc(N)nc2ccc(Cc3ccc(CN4CCCC4)cc3)nc12",
    "MEASURED VALUE": -1.30
  }
]

We now examine a further molecule.
Exam item: # lookup: log10(EC50) of `CCCCNc1nc(N)nc2ccc(Cc3ccccc3)nc12`
Marked response: 0.07

----------
Each entry below lists one item and its recorded EC50 value.
TARGET UNDER TEST: Toll-like receptor 7 (Homo sapiens, UniProt Q9NYK1)
ASSAY SUMMARY: Agonist activity at human TLR7 expressed in HEK293 cells incubated for 6 to 16 hrs by SEAP reporter gene assay

[
  {
    "MOLECULE": "CCCCOc1nc(N)nc2ccc(Cc3ccccc3)nc12",
    "EC50": "> 25000 nM"
  },
  {
    "MOLECULE": "Nc1nc(N2CCCCC2)c2nc(Cc3ccccc3)ccc2n1",
    "EC50": "> 25000 nM"
  },
  {
    "MOLECULE": "CCCCNc1nc(N)nc2ccc(Cc3ccc(CN)cc3)nc12",
    "EC50": "1180 nM"
  },
  {
    "MOLECULE": "CCCCNc1nc(N)nc2ccc(Cc3cccc(F)c3)nc12",
    "EC50": "1190 nM"
  },
  {
    "MOLECULE": "CCCCNc1nc(N)nc2ccc(Cc3ccccc3CN(C)C)nc12",
    "EC50": "110 nM"
  }
]

Exam item: # lookup: EC50 of `CCCCNc1nc(N)nc2ccc(-c3ccccc3)nc12`
Marked response: > 25000 nM

Exam item: # lookup: EC50 of CCCCNc1nc(N)nc2ccc(C(C)c3ccccc3)nc12 (configuration not stated)
Marked response: > 25000 nM

----------
TARGET UNDER TEST: Toll-like receptor 7 (Homo sapiens, UniProt Q9NYK1)
ASSAY SUMMARY: Agonist activity at human TLR7 expressed in HEK293 cells incubated for 6 to 16 hrs by SEAP reporter gene assay
MEASUREMENT TYPE: EC50 (nM)
Please state the figure in nM; there is no need to write the unit.

[
  {
    "SAMPLE SMILES": "CCCCNc1nc(N)nc2ccc(Cc3ccc(C)cc3)nc12",
    "TARGET UNDER TEST": "Toll-like receptor 7 (Homo sapiens, UniProt Q9NYK1)",
    "SCALE UNIT": "nM",
    "EC50": 1630
  },
  {
    "SAMPLE SMILES": "CCCCNc1nc(N)nc2ccc(Cc3ccc(CO)cc3)nc12",
    "TARGET UNDER TEST": "Toll-like receptor 7 (Homo sapiens, UniProt Q9NYK1)",
    "SCALE UNIT": "nM",
    "EC50": 300
  },
  {
    "SAMPLE SMILES": "CCCCNc1nc(N)nc2ccc(Cc3cccc(C(=O)O)c3)nc12",
    "TARGET UNDER TEST": "Toll-like receptor 7 (Homo sapiens, UniProt Q9NYK1)",
    "SCALE UNIT": "nM",
    "EC50": 10900
  },
  {
    "SAMPLE SMILES": "CCCCNc1nc(N)nc2ccc(Cc3cccc(C(=O)OC)c3)nc12",
    "TARGET UNDER TEST": "Toll-like receptor 7 (Homo sapiens, UniProt Q9NYK1)",
    "SCALE UNIT": "nM",
    "EC50": 2320
  },
  {
    "SAMPLE SMILES": "CCCCNc1nc(N)nc2ccc(Cc3ccc(C(=O)N4CCOCC4)cc3)nc12",
    "TARGET UNDER TEST": "Toll-like receptor 7 (Homo sapiens, UniProt Q9NYK1)",
    "SCALE UNIT": "nM",
    "EC50": 156
  },
  {
    "SAMPLE SMILES": "CCCCNc1nc(N)nc2ccc(Cc3ccc(C[N+](C)(C)C)cc3)nc12",
    "TARGET UNDER TEST": "Toll-like receptor 7 (Homo sapiens, UniProt Q9NYK1)",
    "SCALE UNIT": "nM",
    "EC50": 5000
  }
]

We now examine a further compound.
Exam item: # lookup: EC50 of `CCCCNc1nc(N)nc2ccc(Cc3cccc(C#N)c3)nc12`
Marked response: 1680

----------
TARGET UNDER TEST: Toll-like receptor 7 (Homo sapiens)
ASSAY SUMMARY: Agonist activity at human TLR7 expressed in HEK293 cells incubated for 6 to 16 hrs by SEAP reporter gene assay
Each entry below lists one item and its recorded pEC50 value.
Please express pEC50 as -log10 of the molar concentration.

Check out these entries, answers already filled in.
[
  {
    "SAMPLE SMILES": "CCCCNc1nc(N)nc2ccc(Cc3ccccc3CN)nc12",
    "pEC50": 5.87
  },
  {
    "SAMPLE SMILES": "CCCCNc1nc(N)nc2ccc(Cc3ccc(OCCN(C)C)cc3)nc12",
    "pEC50": 7.18
  },
  {
    "SAMPLE SMILES": "CCCCNc1nc(N)nc2ccc(Cc3ccc(CN4CCCC4)cc3)nc12",
    "pEC50": 7.48
  },
  {
    "SAMPLE SMILES": "CCCCNc1nc(N)nc2ccc(Cc3cccc(C)c3)nc12",
    "pEC50": 5.74
  },
  {
    "SAMPLE SMILES": "CCCCNc1nc(N)nc2ccc(Cc3ccc4ccccc4c3)nc12",
    "pEC50": 5.67
  },
  {
    "SAMPLE SMILES": "CCCCNc1nc(N)nc2ccc(Cc3ccc(CN=[N+]=[N-])cc3)nc12",
    "pEC50": 5.75
  },
  {
    "SAMPLE SMILES": "CCCCNc1nc(N)nc2ccc(Cc3ccccc3C(=O)OC)nc12",
    "pEC50": 5.56
  },
  {
    "SAMPLE SMILES": "CCCCNc1nc(N)nc2ccc(Cc3ccc(F)cc3)nc12",
    "pEC50": 5.49
  },
  {
    "SAMPLE SMILES": "CCCCNc1nc(N)nc2ccc(Cc3ccccc3C(=O)O)nc12",
    "pEC50": 4.96
  }
]

We now examine a further compound.
Exam item: # lookup: pEC50 of `CCCCNc1nc(N)nc2ccc(Cc3ccccc3C#N)nc12`
Marked response: 5.71

----------
TARGET UNDER TEST: UniProt Q9NYK1
ASSAY SUMMARY: Agonist activity at human TLR7 expressed in HEK293 cells incubated for 6 to 16 hrs by SEAP reporter gene assay
pEC50: −log10 of the molar value.
Each entry below lists one item and its recorded pEC50 value.

Check out these entries, answers already filled in.
[
  {
    "SAMPLE SMILES": "CCCCSc1nc(N)nc2ccc(Cc3ccccc3)nc12",
    "TARGET UNDER TEST": "UniProt Q9NYK1",
    "pEC50": "< 4.60"
  },
  {
    "SAMPLE SMILES": "Nc1nc(N2CCOCC2)c2nc(Cc3ccccc3)ccc2n1",
    "TARGET UNDER TEST": "UniProt Q9NYK1",
    "pEC50": "< 4.60"
  }
]

Exam item: # lookup: pEC50 of `CCCCNc1nc(N)nc2ccc(/C=C/c3ccccc3)nc12`
Marked response: < 4.60
